The reported numbers originate from the supplement of paper PMC10126150.

Test system: ATP;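 note: ATP exposure 15 min at 22 °C before imaging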
Experiment: switch fluorescence ratio, 500 uM ATP over buffer (Cy3 cluster intensity, sum of 5 cycles each) (fold (ratio)); higher = stronger signal-on switching upon ATP binding; sequences stand for … in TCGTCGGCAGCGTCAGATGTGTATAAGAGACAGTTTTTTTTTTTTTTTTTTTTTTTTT…TC
Conditions: aptamer strand: ATP DNA aptamer (quencher-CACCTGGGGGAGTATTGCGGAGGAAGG + anchor), 100 nM annealed; ATP concentration: 500 uM
Param threshold (1) applies to switch fluorescence ratio; output true when value >= threshold, false when value < threshold.

Below, 8 sequences whose answers are already recorded.
ATTATACTTC :: true
ACTTTTTATA :: false
AACGGGGGGG :: true
ACGTCGCATT :: true
TCCAGGTCGG :: true
CGGGAAGAGC :: true
ATAACAAACT :: true
TTTTCCCCTC :: true

## Task Is it the case that AGCATGTATC has switch fluorescence ratio reaching or exceeding 1?
## Result true

## Task Is it the case that TCTATTATCA has switch fluorescence ratio reaching or exceeding 1?
## Result true

## Task Is it the case that TTTAGGGAGC has switch fluorescence ratio reaching or exceeding 1?
## Result true
